- test.description: yeast display, Sf9 membrane polyspecificity reagent, FACS + sequencing; frameworks hold sequencing errors
test.readout: polyreactivity (PSR sort gate)

See these solved cases before continuing.
- biopolymer.sequence: "QVQLVESGGGLVQAGGSLRLSCAASGIIFGGYDMGWYRQAPGKERELVAAISWSGGSTYYADSVKGRFTISRDNAKNTVYLQMNSLKPEDTAVYYCNAVGRRNVDSSLNDYWGQGTQVTVSS"
  polyreactivity (PSR sort gate): "low polyreactivity"
- biopolymer.sequence: "QVQLVESGGGLVQAGGSLRLSCAASGITLYRYVMGWYRQAPGKERELLADISGRGTSTYYADSVKGRFTISRDNAKNTVYLQMNSLNAEDTAVYYCNAEFTKSGALVIPYTYYYAEDYWGQGSQVTVSS"
  polyreactivity (PSR sort gate): "low polyreactivity"
- biopolymer.sequence: "QVQLVESGGGLVQAGGSLRLSCAAYGLTFYHYTMGWYRQAPGKERELVAAISSSGVTTYYADSVKGRFTISRDNAKNTVYLQMNSLKPEDTAVYYCAAVWYPDRVQPENGTTDSPGDYWGQGTQVTVSS"
  polyreactivity (PSR sort gate): "low polyreactivity"
- biopolymer.sequence: "QVQLVESGGGLVQAGGSLRLSCAASGSIIYPYVMGWYRQAPGKERELVAAISASGGSTYYADSMKGRFTISRDNAKNTVYLQMNSLKPEDTGVYYCAKYYRFRDDYDYWGQGTQVTVSS"
  polyreactivity (PSR sort gate): "high polyreactivity"

Query sequence follows.
Bench note: what polyreactivity (PSR sort gate) did QVQLVESGGGLVQAGGSLRLSCAASGSIFRRKAMGWYRQAPGKERELVAAIRRGGSTNYADSVKGRFTISRDNAKNTVYLQMNSLKPEDTAVYYCAARGGSSGFYYWGQGTQVTVSS show?
high polyreactivity

// provenance: the nanobody polyreactivity screen of Harvey et al. (2022)
